# System: OVCAR-5 ovarian
# PROCEDURE_SUMMARY: NCI-60 one-dose screen, 48 h
# SETUP_CONDITIONS: 10 µM unless noted
Compounds without any hit were thinned out: in the full panel of roughly 83,000, 20% have a hit. Activity calls are given as the source filed them. How the source made its calls: active means growth percent below 10; inactive means the rest.
Outcomes you can answer with include only these: active, inactive

query: Test call, this compound: S=c1[nH]cccc1-c1nnc2n1Nc1nc3ccccc3cc1CS2
result: inactive

query: Please state the recorded outcome for this compound: CC(C)(C)OC(=O)N1CCN(c2ccc(N)cc2)C(=O)C1
result: inactive

query: Hi team, can someone confirm the assay call for COc1ccc(NC(=O)c2sc3nc(C)c(C(O)c4ccc(OC)cc4)cc3c2N)cc1 (centres undefined) ?
result: inactive

query: Hello, I am checking results. What call was entered for C=Cc1cc[n+](CCCCCCCCCCCC)cc1 ?
result: inactive

query: How did this test come out for Cc1ccc2[nH]c(=S)n(-c3ccc(S(=O)(=O)Nc4ccc(Cl)nn4)cc3)c(=O)c2c1 ?
result: inactive

query: Returns: the outcome recorded for COc1ccc(-c2nc(N/N=C/c3cccc(Br)c3)nc(N3CCOCC3)c2C#N)cc1 in this assay.
result: inactive

query: Hi team, can someone confirm the assay call for c1ccc(CCSc2ncnc3nc[nH]c23)cc1 ?
result: inactive

query: Recorded test call requested for NC(=O)C1(N2CCCCC2)CCN(CCCC(=O)c2ccc(F)cc2)CC1
result: inactive

query: Which outcome was entered for the compound Nc1c(C(=O)Nc2cccc3ccncc23)sc2nc3c(cc12)C(=O)CCC3 in this test?
result: inactive

query: Hello, I am checking results. What call was entered for c1ccc2c(-c3c4ccsc4cc4[nH]c5ccccc5c34)c[nH]c2c1 ?
result: inactive

query: Query: recorded result category for O=C(Nc1cccc(C2=NCCN2)c1)c1ccc(OCCCOc2ccc(C(=O)Nc3cccc(C4=NCCN4)c3)cc2)cc1 in this test
result: inactive

query: What outcome does the record of this test show for COc1ccc(Cn2nc3c(c2-c2cc(OC)c(OC)c(OC)c2)-c2oncc2CC3)cc1 ?
result: inactive

query: Write down the call the test reported for this compound. Item: NC(=S)N/N=C/c1ccc(OC(=O)COc2cc(Cl)c(Cl)cc2Cl)cn1
result: inactive

query: What classification did CC(=O)c1cc2c(N)c(C(=O)Nc3cncc4ccccc34)sc2nc1C end up with in this test?
result: inactive

query: GET /call?item= CC1NC(=S)NC(=O)/C1=C/c1cc(=O)oc2c1ccc1ccccc12 (centres undefined) returns the recorded outcome of this test.
result: inactive

query: Called result for COc1cc2c(cc1[N+](=O)[O-])-c1ccc([N+](=O)[O-])cc1/C2=N/NC(N)=S
result: inactive

query: Please share the test call associated with COc1ccc(-c2nc(N=Nc3c(O)[nH]c4ccccc34)nc(N3CCOCC3)c2C#N)cc1 .
result: inactive

query: Query: recorded result category for Cn1c(COC(=O)NCCn2ccnc2)nc2c(N3CCOCC3)nc(-c3ccccc3)nc21 in this test
result: active

query: Look up the recorded call for COc1ccc(C(=O)/C=C/c2c(OC)cc(OC)cc2OC)c(OC)c1 in this test.
result: inactive

query: I would be grateful if you could indicate the recorded call for CCCCCCCCOC(=O)c1ccc(O)c(OC)c1 .
result: inactive

query: Per the assay record, what outcome was assigned to COc1cc(-c2cc(=O)oc3cc(O)ccc23)c(OC)c2c1OCO2 ?
result: inactive

query: // param item: CSc1nc(O)c(-c2ccccc2)c(=O)[nH]1 ; yields the recorded call
result: inactive

query: Called result for CCCCCN1C=C/C(=C\C(=O)N(C)c2ccc(Br)cc2)c2ccccc21
result: inactive

query: Called result for CN(Cc1ccccc1)c1nc(Cl)c(C2CC(c3ccc(Cl)cc3)=Cc3[nH][nH]c(=O)c32)s1 (centres undefined)
result: inactive

---

# System: SK-OV-3 ovarian
# PROCEDURE_SUMMARY: NCI-60 one-dose screen, 48 h
# SETUP_CONDITIONS: 10 µM unless noted
This is part of a sample that, as a whole, favours compounds with a hit. Of some 83,000 tested, about 20% had one in any assay. Activity calls are given as the source filed them. How the source made its calls: active means growth percent below 10; inactive means the rest.
Please reply with one of these outcomes: active, inactive

query: Called result for CCCCCCCCOc1ccc(/C=N/Nc2cc(C)nc3ccc(Cl)cc23)cc1
result: inactive

query: Called result for Clc1ccc(N2N=C(c3cccc(Nc4ccncc4)c3)CC2c2ccc(Br)cc2)cc1 (stereo unspecified)
result: inactive

query: Test call for this molecule, please: COc1cccc2c1C(=O)c1c(O)c3c(c(O)c1C2=O)C[C@@](O)(C(=O)CO)C[C@@H]3O[C@H]1C[C@H](N)[C@@H](O)[C@H](C)O1
result: active

query: Kindly provide the recorded test outcome for the following molecule: O=C1NC(=S)NC(=O)C1=Cc1cn(Cc2ccccn2)c2ccccc12
result: inactive

query: Lab log entry: CN(C)c1ccc(-c2c(C#N)c(N)n3nc(N)c(C#N)c3c2C#N)cc1 — outcome as called in the assay?
result: inactive

query: Hey, what did the test say about O=C(Cc1ccc(/C=C/C(=O)c2ncc[nH]2)cc1)Nc1ccc(C(F)(F)F)cc1 ?
result: inactive

query: Look up the recorded call for C#Cc1cccc(NC(=O)Nc2cccc(N=C=S)c2)c1 in this test.
result: inactive

query: Just curious, what result did COc1ccc(C(O)c2cc3c(N)c(C(=O)Nc4ccccc4)sc3nc2C)cc1 (stereo unspecified) get here?
result: active

query: Recorded test outcome, item C=C1C(=O)O[C@H]2[C@H]1CC/C(COC(=O)CCCCCC(=O)OC/C1=C/CC[C@@]3(C)O[C@H]3[C@H]3OC(=O)C(=C)[C@@H]3CC1)=C\CC[C@@]1(C)O[C@@H]21
result: inactive

query: Hi, do you know how O=C1C(=O)c2c(nc3ncccn23)-c2ccccc21 came out in this test?
result: active

query: Record lookup: outcome of this test for COc1cc(OC)c(/C=C/C(=O)c2ccc(Nc3ncnc4ccccc34)cc2)c(OC)c1 ?
result: active

---

# Tested on: U251 CNS
# PROCEDURE_SUMMARY: NCI-60 one-dose screen, 48 h
# SETUP_CONDITIONS: 10 µM unless noted
# Procedure: Growth inhibition of the U251 human tumor cell line is measured as a screen for anti-cancer activity. Cells are grown in 96 well plates and exposed to the test compound for 48 hours. Compounds are tested at a single concentration, which is 10^-5 M for most compounds. The reported endpoint is percent growth (GI% or GIPRCNT), where numbers from 0 - 100% represent growth inhibition, and numbers from -100% - 0 represent cell death. For example, a value of 40 represents 60% growth inhibition. […]
Compounds without any hit were thinned out: in the full panel of roughly 83,000, 20% have a hit. Active and inactive are the calls of the source. Rule for the calls: active = growth percent below 10; inactive = the rest.
Outcome (select one): Y for active, N for inactive

query: What was the test verdict on O=C(NCCc1ccccn1)OCc1nc2nc(Cl)nc(N3CCOCC3)c2[nH]1 ?
result: N

query: What classification did CCN1C(=O)/C(=c2\sc3n(c2=O)NC2C(N=3)N(CC)C(=O)N2CC)c2ccccc21 (centres undefined) end up with in this test?
result: N

query: Hi, do you know how C#CCNC(=O)[C@H](Cc1ccccc1)NC(=O)[C@]12CC[C@@H](C(=C)C)[C@@H]1[C@H]1CC[C@@H]3[C@@]4(C)Cc5c([nH]c6ccccc56)C(C)(C)[C@@H]4CC[C@@]3(C)[C@]1(C)CC2 came out in this test?
result: N

query: How did this test come out for Clc1ccc(C2CC(c3cccc(Nc4ccncc4)c3)=NN2c2ccccc2)cc1 (centres undefined) ?
result: Y

---

# Test system: NCI-H522 lung
# PROCEDURE_SUMMARY: NCI-60 one-dose screen, 48 h (100 = growth as untreated, 0 = no growth, -100 = all killed)
# SETUP_CONDITIONS: 10 µM unless noted
About 83,000 compounds went through this panel and 20% of them were active in at least one assay; those are over-represented in the sample as a whole.
Exercise: for every item that follows, state its recorded growth.
The reply should be a number in %, with the unit left off.

query: Name the reported growth value associated with the molecule COc1cc(NCCN(CC(C)C)C2CCCC2)c2ncccc2c1
result: 78.1

query: Record request: growth value, item CCN(CC)CCCC(C)Nc1cc(-c2cccc(OC(F)(F)F)c2)nc2ccc(N3CCCC3)cc12 (stereo not drawn)
result: 2.05

query: I'd like to know its growth. The molecule in question is C=C1C(=O)O[C@H]2[C@H]1CC/C(CNC(=O)/C=C/c1ccc(Br)cc1)=C\CC[C@@]1(C)O[C@@H]21
result: -71.2

query: What measured growth goes with O=c1[nH]c2c(s1)CCCC2CN1CCCCC1 (stereo not drawn) ?
result: 89.5

query: Any idea what growth was measured for CCCCCCNC(=O)Oc1ccc(/C(=C(/CC)Cc2ccccc2)c2ccc(OCCN(CC)CC)cc2)cc1 ?
result: 74.5

query: Which growth is listed for COc1cc(C(=O)/C=C/c2c(C)n([O-])c3ccc(Cl)cc3[n+]2=O)cc(OC)c1OC ?
result: -77.3

query: Endpoint output: growth of O=C(/C=C/c1ccc[nH]1)c1ccc(-n2ccc(C(F)(F)F)n2)cc1 . Value?
result: -6.16

query: What does the data say about its growth? Entry: Fc1ccc2nc3c(cc2c1)CSc1nnc(-c2ccc[nH]c2=S)n1N3
result: 86.8
